Test system: K. pneumoniae GN_106, PmxR
experimental-setup: GN 106, PmxR
Positions of bridges follow the written chain, without caps; N, C: chain ends. Non-standard residues stand in square brackets, D forms with d. Residues, ends and D or L forms follow the SMILES beside them. *: point of attachment. Benzoyl(4-OPh) = O=C(c1ccc(Oc2ccccc2)cc1)*; Decanoyl(3R-OH) = CCCCCCC[C@@H](O)CC(=O)*; dBip = N[C@H](Cc1ccc(-c2ccccc2)cc1)C(=O)O; dPhe(4-F) = N[C@H](Cc1ccc(F)cc1)C(=O)O; Ala(cPr) = N[C@@H](CC1CC1)C(=O)O; hPhe = N[C@@H](CCc1ccccc1)C(=O)O; Lauroyl = CCCCCCCCCCCC(=O)*; X4 = CCCCCOc1ccc(C(=O)*)cc1; dDab = NCC[C@@H](N)C(=O)O; dDap = NC[C@@H](N)C(=O)O; Dab = NCC[C@H](N)C(=O)O; Dap = NC[C@H](N)C(=O)O
measure-name: MIC K. pneumoniae GN_106, PmxR

The measured MIC K. pneumoniae GN_106, PmxR associated with CCCCCCC[C@@H](O)CC(=O)N[C@H](CCN)C(=O)N[C@H]1CCNC(=O)[C@H](Cc2ccccc2)NC(=O)[C@H](CN)NC(=O)[C@H](CCN)NC(=O)[C@H](CC(C)C)NC(=O)[C@@H](Cc2ccc(-c3ccccc3)cc2)NC(=O)[C@H](CCN)NC1=O [compound 5384] ({Decanoyl(3R-OH)}-[dDab][Dab][Dab][dBip]L[Dab][Dap]F; lactam 2-C) reads 8 µg/mL

The measured MIC K. pneumoniae GN_106, PmxR associated with CCCCCCC[C@@H](O)CC(=O)N[C@H](CCN)C(=O)N[C@H]1CCNC(=O)[C@H](CC(C)C)NC(=O)[C@H](CCN)NC(=O)[C@H](CCN)NC(=O)[C@H](Cc2ccccc2)NC(=O)[C@@H](Cc2ccccc2)NC(=O)[C@H](CCN)NC1=O [compound 5003] ({Decanoyl(3R-OH)}-[dDab][Dab][Dab][dF]F[Dab][Dab]L; lactam 2-C) reads 4 µg/mL

The measured MIC K. pneumoniae GN_106, PmxR associated with CCCCCCC[C@@H](O)CC(=O)N[C@@H](CCN)C(=O)N[C@@H]1CCNC(=O)[C@H](CC(C)C)NC(=O)[C@H](CCN)NC(=O)[C@H](CCN)NC(=O)[C@H](CC(C)C)NC(=O)[C@@H](Cc2ccc(-c3ccccc3)cc2)NC(=O)[C@H](CCN)NC1=O [compound 6661] ({Decanoyl(3R-OH)}-[Dab][dDab][Dab][dBip]L[Dab][Dab]L; lactam 2-C) reads >32 µg/mL

The measured MIC K. pneumoniae GN_106, PmxR associated with CCCCCCC[C@@H](O)CC(=O)N[C@@H](CN)C(=O)N[C@H]1CCNC(=O)[C@H](CC(C)C)NC(=O)[C@H](CCN)NC(=O)[C@H](CCN)NC(=O)[C@H](CC(C)C)NC(=O)[C@@H](Cc2ccccc2)NC(=O)[C@H](CCN)NC1=O [compound 5561] ({Decanoyl(3R-OH)}-[Dap][Dab][Dab][dF]L[Dab][Dab]L; lactam 2-C) reads 4 µg/mL

The measured MIC K. pneumoniae GN_106, PmxR associated with CCCCCCC[C@@H](O)CC(=O)N[C@H](CCN)C(=O)N[C@H]1CCNC(=O)[C@H](Cc2c[nH]c3ccccc23)NC(=O)[C@H](CCN)NC(=O)[C@H](CCN)NC(=O)[C@H](CCc2ccccc2)NC(=O)[C@@H](Cc2ccccc2)NC(=O)[C@H](CCN)NC1=O [compound 8834] ({Decanoyl(3R-OH)}-[dDab][Dab][Dab][dF][hPhe][Dab][Dab]W; lactam 2-C) reads 8 µg/mL

Further cases:
The measured MIC K. pneumoniae GN_106, PmxR associated with CCCCCCC[C@@H](O)CC(=O)N[C@H](CCN)C(=O)N[C@H]1CCNC(=O)[C@H](Cc2c[nH]c3ccccc23)NC(=O)[C@H](CCN)NC(=O)[C@H](CCN)NC(=O)[C@H](CC(C)C)NC(=O)[C@@H](Cc2ccc(F)cc2)NC(=O)[C@H](CCN)NC1=O [compound 8119] ({Decanoyl(3R-OH)}-[dDab][Dab][Dab][dPhe(4-F)]L[Dab][Dab]W; lactam 2-C) reads 4 µg/mL

The measured MIC K. pneumoniae GN_106, PmxR associated with CCCCCCC[C@@H](O)CC(=O)NCC(=O)N[C@H]1CCNC(=O)[C@H](CC(C)C)NC(=O)[C@H](CCN)NC(=O)[C@H](CCN)NC(=O)[C@H](CC(C)C)NC(=O)[C@@H](Cc2ccccc2)NC(=O)[C@H](CCN)NC1=O [compound 6446] ({Decanoyl(3R-OH)}-G[Dab][Dab][dF]L[Dab][Dab]L; lactam 2-C) reads 8 µg/mL

The measured MIC K. pneumoniae GN_106, PmxR associated with CCCCCCCCCCCC(=O)N[C@H](CN)C(=O)N[C@H]1CCNC(=O)[C@H](CC(C)C)NC(=O)[C@H](CCN)NC(=O)[C@H](CCN)NC(=O)[C@H](CC(C)C)NC(=O)[C@@H](Cc2ccccc2)NC(=O)[C@H](CCN)NC1=O [compound 9297] (Lauroyl-[dDap][Dab][Dab][dF]L[Dab][Dab]L; lactam 2-C) reads 8 µg/mL

The measured MIC K. pneumoniae GN_106, PmxR associated with CCCCCCC[C@@H](O)CC(=O)N[C@H](C)C(=O)N[C@H]1CCNC(=O)[C@H](CC(C)C)NC(=O)[C@H](CCN)NC(=O)[C@H](CCN)NC(=O)[C@H](CC(C)C)NC(=O)[C@@H](Cc2ccccc2)NC(=O)[C@H](CCN)NC1=O [compound 4951] ({Decanoyl(3R-OH)}-[dA][Dab][Dab][dF]L[Dab][Dab]L; lactam 2-C) reads 8 µg/mL

The measured MIC K. pneumoniae GN_106, PmxR associated with CCCCCCC[C@@H](O)CC(=O)N[C@H](CCN)C(=O)N[C@H]1CCNC(=O)[C@H](Cc2c[nH]c3ccccc23)NC(=O)[C@H](CCN)NC(=O)[C@H](CCN)NC(=O)[C@H](CC2CC2)NC(=O)[C@@H](Cc2ccccc2)NC(=O)[C@H](CCN)NC1=O [compound 8099] ({Decanoyl(3R-OH)}-[dDab][Dab][Dab][dF][Ala(cPr)][Dab][Dab]W; lactam 2-C) reads 4 µg/mL

The measured MIC K. pneumoniae GN_106, PmxR associated with CCCCCOc1ccc(C(=O)N[C@H](CCN)C(=O)N[C@H]2CCNC(=O)[C@H](CC(C)C)NC(=O)[C@H](CCN)NC(=O)[C@H](CCN)NC(=O)[C@H](CC(C)C)NC(=O)[C@@H](Cc3ccccc3)NC(=O)[C@H](CCN)NC2=O)cc1 [compound 6528] (X4-[dDab][Dab][Dab][dF]L[Dab][Dab]L; lactam 2-C) reads 32 µg/mL

The measured MIC K. pneumoniae GN_106, PmxR associated with CC(C)C[C@@H]1NC(=O)[C@H](CCN)NC(=O)[C@H](CCN)NC(=O)[C@H](Cc2ccccc2)NC(=O)[C@@H](CC(C)C)NC(=O)[C@H](CCN)NC(=O)[C@@H](NC(=O)[C@@H](CCN)NC(=O)c2ccc(Oc3ccccc3)cc2)CCNC1=O [compound 6519] ({Benzoyl(4-OPh)}-[dDab][Dab][Dab][dL]F[Dab][Dab]L; lactam 2-C) reads 32 µg/mL

Cited source: patent US11279733B2
